test system: Escherichia coli TOP10; assay: shrunken log2 fold change of peptide-encoding DNA abundance (4.5 h post-induction vs induction); higher = less antimicrobial activity (less host growth inhibition); conditions: time post-induction: 4.5 h; library: site-saturation at positions 5, 18, 19, 20;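 note: peptides expressed intracellularly from a pBAD plasmid library in pooled LB shake-flask culture, induced with 0.3% L-arabinose, DNA abundance read by NGS, three biological replicates, DESeq2 with apeglm shrinkage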
Binning scheme for shrunken log2 fold change: class 0 (below -0.07), class 1 (-0.07 to below 0.1), class 2 (0.1 or more)

[[record]]
ordered_residues = "RRIRCRPPRLPRPRPRPNAGPRP"
class_label = "class 1"

[[record]]
ordered_residues = "RRIRSRPPRLPRPRPRPQHGPRP"
class_label = "class 0"

[[record]]
ordered_residues = "RRIRARPPRLPRPRPRPYQWPRP"
class_label = "class 0"

[[record]]
ordered_residues = "RRIRKRPPRLPRPRPRPKYFPRP"
class_label = "class 0"

[[record]]
ordered_residues = "RRIRGRPPRLPRPRPRPSDKPRP"
class_label = "class 1"

[[record]]
ordered_residues = "RRIRIRPPRLPRPRPRPMQPPRP"
class_label = "class 1"

[[record]]
ordered_residues = "RRIRIRPPRLPRPRPRPTGHPRP"
class_label = "class 0"

[[record]]
ordered_residues = "RRIRCRPPRLPRPRPRPQVAPRP"
class_label = "class 1"

[[record]]
ordered_residues = "RRIRGRPPRLPRPRPRPFNFPRP"
class_label = "class 1"

[[record]]
ordered_residues = "RRIRKRPPRLPRPRPRPRSSPRP"
class_label = "class 2"

[[record]]
ordered_residues = "RRIRFRPPRLPRPRPRPKSKPRP"
class_label = "class 0"

[[record]]
ordered_residues = "RRIRMRPPRLPRPRPRPGQSPRP"
class_label = "class 2"

[[record]]
ordered_residues = "RRIRPRPPRLPRPRPRPKEPPRP"
class_label = "class 2"

[[record]]
ordered_residues = "RRIRPRPPRLPRPRPRPDLEPRP"
class_label = "class 1"

[[record]]
ordered_residues = "RRIRGRPPRLPRPRPRPHPVPRP"
class_label = "class 2"

[[record]]
ordered_residues = "RRIRHRPPRLPRPRPRPKDWPRP"
class_label = "class 2"

[[record]]
ordered_residues = "RRIRKRPPRLPRPRPRPWCRPRP"
class_label = "class 0"

[[record]]
ordered_residues = "RRIRCRPPRLPRPRPRPISLPRP"
class_label = "class 0"

[[record]]
ordered_residues = "RRIRRRPPRLPRPRPRPSDFPRP"
class_label = "class 0"

[[record]]
ordered_residues = "RRIRLRPPRLPRPRPRPTLMPRP"
class_label = "class 1"

[[record]]
ordered_residues = "RRIRIRPPRLPRPRPRPWVPPRP"
class_label = "class 0"

[[record]]
ordered_residues = "RRIRKRPPRLPRPRPRPNADPRP"
class_label = "class 1"

[[record]]
ordered_residues = "RRIRNRPPRLPRPRPRPRSAPRP"
class_label = "class 1"

[[record]]
ordered_residues = "RRIRVRPPRLPRPRPRPWLHPRP"
class_label = "class 2"

[[record]]
ordered_residues = "RRIRMRPPRLPRPRPRPGEQPRP"
class_label = "class 2"

[[record]]
ordered_residues = "RRIRPRPPRLPRPRPRPLRDPRP"
class_label = "class 2"

[[record]]
ordered_residues = "RRIRIRPPRLPRPRPRPENWPRP"
class_label = "class 1"

[[record]]
ordered_residues = "RRIRLRPPRLPRPRPRPEMNPRP"
class_label = "class 2"

[[record]]
ordered_residues = "RRIRTRPPRLPRPRPRPLWIPRP"
class_label = "class 0"

[[record]]
ordered_residues = "RRIRVRPPRLPRPRPRPYAHPRP"
class_label = "class 0"

[[record]]
ordered_residues = "RRIRCRPPRLPRPRPRPADAPRP"
class_label = "class 2"

[[record]]
ordered_residues = "RRIRTRPPRLPRPRPRPRGPPRP"
class_label = "class 2"

